Biological target: T1, CD81 (UniProt P60033 1-236, limits assumed)
T1 construct: whole, on cells; also called CD81 receptor
T1 sequence (looked up): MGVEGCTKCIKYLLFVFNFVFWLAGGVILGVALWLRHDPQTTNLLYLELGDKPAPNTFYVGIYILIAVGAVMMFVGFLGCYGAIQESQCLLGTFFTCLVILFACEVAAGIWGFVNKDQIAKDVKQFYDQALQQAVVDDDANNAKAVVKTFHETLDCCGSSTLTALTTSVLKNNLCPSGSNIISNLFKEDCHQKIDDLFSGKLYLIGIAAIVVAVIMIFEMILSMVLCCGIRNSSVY
Test: cell ELISA;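 note: antibody binding to HuH7 cells expressing CD81 versus a CD81-negative HuH7 control line, bound antibody detected by secondary reagent, absorbance at 450 nm with 620 nm reference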
QUANTITY: ELISA data

INSERT INTO assay_data (binder, quantity, recorded_value) VALUES
  ('CD81K04 HC JA_GG-14-hVH_1_3 / LC JA_GG-10-hVK_4_1 (antibody, V domains shown, human constant region) VH: QVQLVQSGAEVKKPGASVKVSCKASGYTFSSSWMNWVRQAPGQGLEWMGRIYSGDGDAIYNGKFKGRATITADTSASTAYMELSSLRSEDTAVYYCAREGKTGDLLLRSWGQGTLVTVSS VL: DIVMTQSPDSLAVSLGERATINCRASKSVSTSIYSYMHWYQQKPGQPPKLLIKYASYLESGVPDRFSGSGSGTDFTLTISSLQAEDVAVYYCEHSREFPFTFGQGTKLEIK', 'ELISA data', 0.882),
  ('CD81K04 HC JA_GG-14-hVH_1_3 / LC JA_GG-09-hVK_4_1 (antibody, V domains shown, human constant region) VH: QVQLVQSGAEVKKPGASVKVSCKASGYTFSSSWMNWVRQAPGQGLEWMGRIYSGDGDAIYNGKFKGRATITADTSASTAYMELSSLRSEDTAVYYCAREGKTGDLLLRSWGQGTLVTVSS VL: DIVMTQSPDSLAVSLGERATINCKSSKSVSTSIYSYMHWYQQKPGQPPKLLIKYASTRESGVPDRFSGSGSGTDFTLTISSLQAEDVAVYYCEHSREFPFTFGQGTKLEIK', 'ELISA data', 0.975),
  ('CD81K04 HC GG-05-hVH_1_18 / LC JA_GG-09-hVK_4_1 (antibody, V domains shown, human constant region) VH: QVQLVQSGAEVKKPGASVKVSCKASGYTFSSSWMNWVRQAPGQGLEWMGRIYSGDGDAIYAQKLQGRVTMTTDTSTSTAYMELRSLRSDDTAVYYCAREGKTGDLLLRSWGQGTLVTVSS VL: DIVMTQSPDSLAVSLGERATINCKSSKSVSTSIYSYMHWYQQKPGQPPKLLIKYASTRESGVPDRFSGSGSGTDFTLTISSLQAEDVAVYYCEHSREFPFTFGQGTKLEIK', 'ELISA data', 0.889),
  ('CD81K04 HC K04_JA_GG-17-hVH_1_3 / LC JA_GG-08-hVK_4_1 (antibody, V domains shown, human constant region) VH: QVQLVQSGAEVKKPGASVKVSCKASGYTFSSSWMNWVRQAPGQRLEWMGRIYSGDGDTIYSQKFQGRVTITADTSASTAYMELSSLRSEDTAVYYCAREGKTGDLLLRSWGQGTLVTVSS VL: DIVMTQSPDSLAVSLGERATINCKSSKSVSTSIYSYMHWYQQKPGQPPKLLIKYASYLESGVPDRFSGSGSGTDFTLTISSLQAEDVAVYYCEHSREFPFTFGQGTKLEIK', 'ELISA data', 0.941),
  ('CD81K04 HC JA_GG-16-hVH_1_3 / LC JA_GG-10-hVK_4_1 (antibody, V domains shown, human constant region) VH: QVQLVQSGAEVKKPGASVKVSCKASGYTFSSSWMNWVRQAPGQGLEWMGRIYSGDGDAIYNGKFKGRVTITADTSASTAYMELSSLRSEDTAVYYCAREGKTGDLLLRSWGQGTLVTVSS VL: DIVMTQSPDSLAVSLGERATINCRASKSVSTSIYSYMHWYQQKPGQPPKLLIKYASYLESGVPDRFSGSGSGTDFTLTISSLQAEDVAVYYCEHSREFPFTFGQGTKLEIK', 'ELISA data', 0.88);
